Test system: HS 578T breast
Experiment: NCI-60 one-dose screen, 48 h (100 = growth as untreated, 0 = no growth, -100 = all killed)
Settings: 10 µM unless noted
Protocol: Growth inhibition of the HS 578T human tumor cell line is measured as a screen for anti-cancer activity. Cells are grown in 96 well plates and exposed to the test compound for 48 hours. Compounds are tested at a single concentration, which is 10^-5 M for most compounds. The reported endpoint is percent growth (GI% or GIPRCNT), where numbers from 0 - 100% represent growth inhibition, and numbers from -100% - 0 represent cell death. For example, a value of 40 represents 60% growth inhibition. […]
This is part of a sample that, as a whole, favours compounds with a hit. Of some 83,000 tested, about 20% had one in any assay.
Each entry falls in a class defined on growth; the bands are L = under 50%, M = from 50% up to 70%, H = 70% and over

Known results for compounds:
compound=CCCCCCCCCCCCCCCCCCOc1ccccc1CC(=O)NCC[N+]1(C)CCOCC1 assigned_class=M
compound=O=C1/C(=C/c2ccc(C(F)(F)F)cc2)COc2ccc(O)cc21 assigned_class=H
compound="COC(=O)C1=C(C)NC(C)=C(C(=O)OCC(C)C)C1c1ccccc1[N+](=O)[O-] (stereo not given)" assigned_class=H
compound=N#Cc1c(N2CCOCC2)nc(=S)[nH]c1-c1ccccc1 assigned_class=L
compound=CCN(CC)c1ccc(/C=N\NC(=O)c2cccc(Nc3ccnc(C(F)(F)F)c3)c2)c(O)c1 assigned_class=M
compound=O=c1ccc2nc(C(F)(F)F)nn(-c3ccccc3)c-2c1 assigned_class=H
compound=O=C(OC[C@@H]1CO1)c1cccc2c(=O)c3ccccc3[nH]c12 assigned_class=L

Please find the next compound below.
Inquiry: Lab note: which band did `COc1ccc2cc(-c3cnc4nonc4n3)ccc2c1` land in?
Reply text: L

Hey, just so you know, these numbers are from PubChem BioAssay (NCI).
